- Test system: HEK-CMV-Luc2-Hygro cells
- EXPERIMENT DESCRIPTION: High-throughput genome-wide siRNA screen and validation screen for luciferase expression
- Type: cell-based, human
- ASSAY CONDITIONS: Table 4; primary screen, 72 h, negative control = 100%
MEASUREMENT KIND: per cell luciferase yield (%)
Enter your answer as a number in %; do not include the unit.

Query 121 (CAUUGGUUUUGAUGAGUAUTT; chemistry not given here; listed as Homo sapiens) [compound 121] on HEK-CMV-Luc2-Hygro cells; per cell luciferase yield (%) returned: 226.659

Query 166 (CCAAGUCCAAUGCACCUGUTT; chemistry not given here; listed as Homo sapiens) [compound 166] on HEK-CMV-Luc2-Hygro cells; per cell luciferase yield (%) returned: 186.195

Query 169 (GCGGAAAAGGUAUCCCUCATT; chemistry not given here; listed as Homo sapiens) [compound 169] on HEK-CMV-Luc2-Hygro cells; per cell luciferase yield (%) returned: 184.608

###

So I've got a bunch of sequences here, and I need their Signal relative to negative control (%) values.
- System: T-REx-293-NTSR1-GFP cells
- EXPERIMENT DESCRIPTION: High-throughput human miRNA mimic library screen, image-based per cell green fluorescence (NTSR1-GFP expression)
- ASSAY CONDITIONS: per cell green fluorescence intensity
Enter your answer as a number in %; do not include the unit.

The sequence identified as ACUCUUUCCCUGUUGCACUAC (listed as RNA, chemistry not given here; listed as Homo sapiens) [miR-130b-5p, human miRNA mimic] registered its Signal relative to negative control (%) at 178

The sequence identified as UUGGGGAAACGGCCGCUGAGUG [miR-2110] registered its Signal relative to negative control (%) at 160

The sequence identified as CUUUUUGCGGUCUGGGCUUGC (listed as RNA, chemistry not given here; listed as Homo sapiens) [miR-129-5p, human miRNA mimic] registered its Signal relative to negative control (%) at 172

The sequence identified as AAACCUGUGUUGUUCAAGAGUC (listed as RNA, chemistry not given here; listed as Homo sapiens) [miR-649, human miRNA mimic] registered its Signal relative to negative control (%) at 150

###

- Tested on: T-REx-293-NTSR1-GFP cells
- EXPERIMENT DESCRIPTION: High-throughput human miRNA mimic library screen, image-based per cell green fluorescence (NTSR1-GFP expression)
- ASSAY CONDITIONS: per cell green fluorescence intensity
Decide using Signal relative to negative control (%) alone. Strictly below 200%: Condition met. Equal to or above 200%: Condition not met.

Please let me know if CAUCCCUUGCAUGGUGGAGGG (listed as RNA, chemistry not given here; listed as Homo sapiens) [miR-188-5p, human miRNA mimic] shows Signal relative to negative control (%) below 200%. Condition met

Please let me know if UCCGUCUCAGUUACUUUAUAGC (listed as RNA, chemistry not given here; listed as Homo sapiens) [miR-340-3p, human miRNA mimic] shows Signal relative to negative control (%) below 200%. Condition met

Please let me know if CUAUACAGUCUACUGUCUUUCC (listed as RNA, chemistry not given here; listed as Homo sapiens) [let-7f-2-3p, human miRNA mimic] shows Signal relative to negative control (%) below 200%. Condition met

Please let me know if UAAGGUGCAUCUAGUGCAGAUAG (listed as RNA, chemistry not given here; listed as Homo sapiens) [miR-18a-5p, human miRNA mimic] shows Signal relative to negative control (%) below 200%. Condition met

Please let me know if AGUUCUUCAGUGGCAAGCUUUA (listed as RNA, chemistry not given here; listed as Homo sapiens) [miR-22-5p, human miRNA mimic] shows Signal relative to negative control (%) below 200%. Condition not met

Data credit: patent US20160319277A1
